assayedSystem: human plasma kallikrein (human, UniProt P03952 20-390; P03952 391-638)
Sequence (P03952 20-390, chain 1 of 2): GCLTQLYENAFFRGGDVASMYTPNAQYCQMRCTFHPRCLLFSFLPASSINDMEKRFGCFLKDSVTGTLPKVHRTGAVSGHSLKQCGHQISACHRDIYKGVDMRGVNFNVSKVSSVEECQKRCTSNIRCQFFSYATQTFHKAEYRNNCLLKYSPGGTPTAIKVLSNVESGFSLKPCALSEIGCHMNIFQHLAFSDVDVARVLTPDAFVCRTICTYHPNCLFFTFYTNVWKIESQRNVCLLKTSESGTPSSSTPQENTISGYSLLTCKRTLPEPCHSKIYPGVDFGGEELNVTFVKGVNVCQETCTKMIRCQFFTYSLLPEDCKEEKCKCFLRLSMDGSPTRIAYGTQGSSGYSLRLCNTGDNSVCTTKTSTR
Sequence (P03952 391-638, chain 2 of 2): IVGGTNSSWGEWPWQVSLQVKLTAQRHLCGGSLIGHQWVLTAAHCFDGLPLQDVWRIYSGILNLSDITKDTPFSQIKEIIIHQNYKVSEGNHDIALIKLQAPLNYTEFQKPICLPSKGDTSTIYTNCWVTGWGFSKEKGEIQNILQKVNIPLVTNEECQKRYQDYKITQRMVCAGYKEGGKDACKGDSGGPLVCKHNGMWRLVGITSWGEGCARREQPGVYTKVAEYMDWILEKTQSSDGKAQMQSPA
assayText: cell-based or functional assay
quantityMeasured: % inhibition at 10 nM (%)
Supply the numeric figure in %, leaving out any unit text.

binder	outputUnit	% inhibition at 10 nM
M198-A01 (Fab, V domains shown) VH: EVQLLESGGGLVQPGGSLRLSCAASGFTFSPYTMIWVRQAPGKLGEWVSSISSSGGMTPYADSVKGRFTISRDNSKNTLYLQMNSLRAEDTAVYYCAYRRTGIPRRDAFDIWGQGTMVTVSS VL: DIQMTQSPSTLSASVGDRVTITCRASQSISSWLAWYQQKPGKAPNLLIYKASTLESGVPSRFSGSGSGTEFTLTISSLQPDDFATYYCQQYNTYWTFGQGTKVEIK	%	13.8
M198-C10 (Fab, V domains shown) VH: EVQLLESGGGLVQPGGSLRLSCAASGFTFSHYMGMNWVRQAPGKGLEWVSSIVPSGGWTQYADSVKGRFTISRDNSKNTLYLQMNSLRAEDTAVYYCAYRRTGIPRRDAFDIWGQGTMVTVSS VL: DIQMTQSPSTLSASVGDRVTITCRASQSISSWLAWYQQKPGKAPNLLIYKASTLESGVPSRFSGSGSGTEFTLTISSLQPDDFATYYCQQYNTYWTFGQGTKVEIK	%	93

Now, please, on to the next binder.
Bench note: what % inhibition at 10 nM did M202-A12 (Fab, V domains shown, Tested as Fab; printed HC runs into CH1) VH: EVQLLESGGGLVQPGGSLRLSCAASGFTFSHYIMMWVRQAPGKGLEWVSGIYSSGGITVYADSVKGRFTISRDNSKNTLYLQMNSLRAEDTAVYYCAYQRTGVPRRDSFNIWGQGTMVTVSS VL: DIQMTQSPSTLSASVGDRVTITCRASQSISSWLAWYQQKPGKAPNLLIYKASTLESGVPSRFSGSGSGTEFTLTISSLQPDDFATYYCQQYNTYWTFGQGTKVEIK show?
97.5
